Origin of the recorded values: patent US5196547A

study_target: 5-HT3 receptor (Rattus norvegicus)
Sequence (P35563 24-483): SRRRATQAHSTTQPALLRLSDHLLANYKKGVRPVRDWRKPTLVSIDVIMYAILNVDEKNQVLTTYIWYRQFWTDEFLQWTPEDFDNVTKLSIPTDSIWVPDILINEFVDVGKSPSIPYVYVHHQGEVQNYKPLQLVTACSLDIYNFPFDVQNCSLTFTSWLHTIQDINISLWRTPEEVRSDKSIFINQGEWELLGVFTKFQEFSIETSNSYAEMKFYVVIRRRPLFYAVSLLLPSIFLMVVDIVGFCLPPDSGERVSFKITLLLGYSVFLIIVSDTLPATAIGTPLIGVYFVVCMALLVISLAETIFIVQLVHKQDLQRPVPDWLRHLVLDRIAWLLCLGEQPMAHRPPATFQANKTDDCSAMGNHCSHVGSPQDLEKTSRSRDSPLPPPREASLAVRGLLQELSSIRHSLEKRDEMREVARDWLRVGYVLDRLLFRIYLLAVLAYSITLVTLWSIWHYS
recorded_metric: pKd
Give only the number. pKd is defined as minus log10 of concentration in molar units.

Sample Cc1nc[nH]c1CCC(=O)c1cn(C)c2ccccc12 ; pKd observed: 8.61
